The reported measurements were obtained from patent US8952024B2.

System: barnyardgrass (Echinochloa crus-galli)
experiment-description: Test A pre-/postemergence plant response
Type: in vivo
condition-label: Postemergence, 500 g ai/ha; 0 to 100 scale, 0 = no effect, 100 = complete control; approx. ten days
quantity: Plant response rating, Barnyardgrass

Inquiry: Annotate the compound O=C1CCCC(O)=C1C(=O)c1cnc(-c2ccc(Cl)cc2)n(-c2ccccc2)c1=O with its measured Plant response rating, Barnyardgrass.
Reply text: 90

Inquiry: Annotate the compound CCCn1c(-c2ccc(OC)cc2)ncc(C(=O)C2=C(O)CCCC2=O)c1=O with its measured Plant response rating, Barnyardgrass.
Reply text: 90

Inquiry: Annotate the compound CCCn1c(-c2ccsc2)ncc(C(=O)C2=C(O)CCCC2=O)c1=O with its measured Plant response rating, Barnyardgrass.
Reply text: 90

Inquiry: Annotate the compound Cc1ccc(Cl)cc1-n1c(-c2cccc(Cl)c2)ncc(C(=O)C2=C(O)CCCC2=O)c1=O with its measured Plant response rating, Barnyardgrass.
Reply text: 100

----------
Test system: ducksalad (Heteranthera limosa)
experiment-description: Test B flooded paddy test
Type: in vivo
condition-label: Flood (flooded paddy test), 125 g ai/ha; scale 0 to 100, 0 is no effect, 100 is complete control; 13 to 15 days
Give measured Plant response rating, Ducksalad for each item. Keep answers brief.
Just the number, please, no unit attached.

Inquiry: Annotate the compound Cc1ccccc1-n1c(-c2cccc(Br)c2)ncc(C(=O)C2=C(O)CCCC2=O)c1=O [Compound 209] with its measured Plant response rating, Ducksalad.
Reply text: 85

Inquiry: Annotate the compound CCc1cccc(-n2c(-c3ccccc3)ncc(C(=O)C3=C(O)CCCC3=O)c2=O)c1 [Compound 220] with its measured Plant response rating, Ducksalad.
Reply text: 85

Inquiry: Annotate the compound COCCCn1c(-c2cccc(F)c2)ncc(C(=O)C2=C(O)CCCC2=O)c1=O [Compound 126] with its measured Plant response rating, Ducksalad.
Reply text: 85

Inquiry: Annotate the compound CCCn1c(-c2cccc(C)c2)ncc(C(=O)C2=C(O)CCCC2=O)c1=O [Compound 172] with its measured Plant response rating, Ducksalad.
Reply text: 60

----------
System: large crabgrass (Digitaria sanguinalis)
experiment-description: Test A pre-/postemergence plant response
Format: in vivo
condition-label: Postemergence, 500 g ai/ha; 0 to 100 scale, 0 = no effect, 100 = complete control; approx. ten days
Give measured Plant response rating, Crabgrass, Large for each item. Keep answers brief.
Just the number, please, no unit attached.

Inquiry: Answer briefly: Plant response rating, Crabgrass, Large recorded on large crabgrass (Digitaria sanguinalis) for O=C1CCCC(O)=C1C(=O)c1cnc(C2CCC2)n(-c2ccccc2)c1=O
Reply text: 90

Inquiry: Answer briefly: Plant response rating, Crabgrass, Large recorded on large crabgrass (Digitaria sanguinalis) for COCCCn1c(-c2cccc(Cl)c2)ncc(C(=O)C2=C(O)CCCC2=O)c1=O
Reply text: 90

Inquiry: Answer briefly: Plant response rating, Crabgrass, Large recorded on large crabgrass (Digitaria sanguinalis) for O=C1CCCC(O)=C1C(=O)c1cnc(-c2ccccc2)n(-c2ccccc2Br)c1=O
Reply text: 100

Inquiry: Answer briefly: Plant response rating, Crabgrass, Large recorded on large crabgrass (Digitaria sanguinalis) for COCCCn1c(-c2cccc(F)c2)ncc(C(=O)C2=C(O)CCCC2=O)c1=O
Reply text: 90

Inquiry: Answer briefly: Plant response rating, Crabgrass, Large recorded on large crabgrass (Digitaria sanguinalis) for O=C1CCCC(O)=C1C(=O)c1cnc(-c2ccccc2)n(C2CCCCCC2)c1=O
Reply text: 100

Inquiry: Answer briefly: Plant response rating, Crabgrass, Large recorded on large crabgrass (Digitaria sanguinalis) for Cc1cc(Cl)ccc1-n1c(-c2ccccc2)ncc(C(=O)C2=C(O)CCCC2=O)c1=O
Reply text: 90

Inquiry: Answer briefly: Plant response rating, Crabgrass, Large recorded on large crabgrass (Digitaria sanguinalis) for Cc1ccc(C)c(-n2c(-c3ccccc3)ncc(C(=O)C3=C(O)CCCC3=O)c2=O)c1
Reply text: 90

Inquiry: Answer briefly: Plant response rating, Crabgrass, Large recorded on large crabgrass (Digitaria sanguinalis) for Cc1cccc(-n2c(-c3ccccc3)ncc(C(=O)C3=C(O)CCCC3=O)c2=O)c1
Reply text: 80

Inquiry: Answer briefly: Plant response rating, Crabgrass, Large recorded on large crabgrass (Digitaria sanguinalis) for CCCn1c(-c2ccc(Br)cc2)ncc(C(=O)C2=C(O)CCCC2=O)c1=O
Reply text: 80

Inquiry: Answer briefly: Plant response rating, Crabgrass, Large recorded on large crabgrass (Digitaria sanguinalis) for Cc1ccc(-n2c(-c3cccc(Cl)c3)ncc(C(=O)C3=C(O)CCCC3=O)c2=O)cc1
Reply text: 90

Inquiry: Answer briefly: Plant response rating, Crabgrass, Large recorded on large crabgrass (Digitaria sanguinalis) for CC(C)c1ncc(C(=O)C2=C(O)CCCC2=O)c(=O)n1-c1ccccc1
Reply text: 100

Inquiry: Answer briefly: Plant response rating, Crabgrass, Large recorded on large crabgrass (Digitaria sanguinalis) for O=C1CCCC(O)=C1C(=O)c1cnc(-c2ccc(Cl)cc2)n(-c2ccccc2)c1=O
Reply text: 90

Inquiry: Answer briefly: Plant response rating, Crabgrass, Large recorded on large crabgrass (Digitaria sanguinalis) for Cc1cccc(C)c1-n1c(-c2ccccc2)ncc(C(=O)C2=C(O)CCCC2=O)c1=O
Reply text: 90

Inquiry: Answer briefly: Plant response rating, Crabgrass, Large recorded on large crabgrass (Digitaria sanguinalis) for O=C1CCCC(O)=C1C(=O)c1cnc(-c2cccc(Br)c2)n(-c2ccccc2)c1=O
Reply text: 100

Inquiry: Answer briefly: Plant response rating, Crabgrass, Large recorded on large crabgrass (Digitaria sanguinalis) for CCCn1c(-c2cccc(OC)c2)ncc(C(=O)C2=C(O)CCCC2=O)c1=O
Reply text: 90

Inquiry: Answer briefly: Plant response rating, Crabgrass, Large recorded on large crabgrass (Digitaria sanguinalis) for Cc1cccc(-n2c(-c3ccccc3)ncc(C(=O)C3=C(O)CCCC3=O)c2=O)c1C
Reply text: 100

Inquiry: Answer briefly: Plant response rating, Crabgrass, Large recorded on large crabgrass (Digitaria sanguinalis) for COc1ccc(-n2c(-c3cccc(Cl)c3)ncc(C(=O)C3=C(O)CCCC3=O)c2=O)cc1
Reply text: 70

Inquiry: Answer briefly: Plant response rating, Crabgrass, Large recorded on large crabgrass (Digitaria sanguinalis) for O=C1CCCC(O)=C1C(=O)c1cnc(C2CC2)n(-c2ccccc2)c1=O
Reply text: 90

Inquiry: Answer briefly: Plant response rating, Crabgrass, Large recorded on large crabgrass (Digitaria sanguinalis) for O=C1CCCC(O)=C1C(=O)c1cnc(C2CCCC2)n(-c2ccccc2)c1=O
Reply text: 90
